# system_name: T1, VACV D8 protein (vaccinia virus, UniProt P04195 1-261)
# T1 sequence: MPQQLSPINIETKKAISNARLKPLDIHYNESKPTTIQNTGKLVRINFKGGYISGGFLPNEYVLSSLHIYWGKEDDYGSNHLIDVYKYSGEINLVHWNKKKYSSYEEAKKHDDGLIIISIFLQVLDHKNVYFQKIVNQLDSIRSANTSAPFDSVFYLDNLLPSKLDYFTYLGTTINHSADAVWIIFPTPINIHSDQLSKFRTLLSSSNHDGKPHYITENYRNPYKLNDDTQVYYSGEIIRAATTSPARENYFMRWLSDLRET
# assay_remarks: cell-based or functional assay
experimental_endpoint: PRNT Emax, VACV MV+C' (%)
Numeric only. Scale: %

- VACV-8 (antibody, V domains shown, human IgG1, anti-D8) VH: QVQLQQWGAGLLKPSETLSLTCAGYGGSFSGYFWSWIRQPPGKGLEWIGEINHSGSTDYNPSLKSRVTISLDTSKTQFSLKLSSVTAADTAVYYCARVMTGITNYYYYYGMDVWGQGTTVTF VL: DIQLTQSPSFLSASVGDRVTITCRASQDISSYLAWYQQKPGKAPKLLIYAASTLQSGVPSRFSGSESGTEFTLTISSLQPENFATYYCQHLNSYPRGYTFGQGTKVDIK: 74

# ---- query binder ----
In: What measured PRNT Emax, VACV MV+C' goes with VACV-249 (antibody, V domains shown, human IgG1, anti-D8) VH: QVQLVESGPGLVKPSQTLSLTCTVSGGSISRGIYYWSWIRQPAGKGLEWIGRIYTSGSTNYNPSLKSRVTISVDTSKNQFSLKLSSVTAADTAVYYCARDGWYGWYLDLWGRGTLVTVSS VL: EIVMTQSPATLSVSPGERATLSCRASQSVSSDLAWYQQKPGQAPRLLIYGASTRATGIPARFSGSGSGTEFTLTISSLQSEDFAVYYCQQYNNWPGTFGGGTKVDIK ?
Out: 70
